mean geometric MIC, Vancomycin Sensitive Strains values, listed per item
System: vancomycin-susceptible enterococci
Test: broth micro-dilution, mean geometric MIC
Format: cell-based, Enterococcus faecium and Enterococcus faecalis
Settings: enterococci, 24-hour incubation
property_measured: mean geometric MIC, Vancomycin Sensitive Strains (µg/mL)

compound | study_system | unit_info | recorded_result
CC#CCCCCCCCCCCOc1ccc(CNC2(C)CC(OC3C(Oc4c5cc6cc4Oc4ccc(cc4Cl)C(OC4CC(C)(N)C(O)C(C)O4)C4NC(=O)C(NC(=O)C6NC(=O)C(CC(N)=O)NC(=O)C(NC(=O)C(CC(C)C)NC)C(O)c6ccc(c(Cl)c6)O5)c5ccc(O)c(c5)-c5c(O)cc(O)cc5C(C(=O)O)NC4=O)OC(CO)C(O)C3O)OC(C)C2O)cc1 (stereo not drawn) | vancomycin-susceptible enterococci | µg/mL | 1.7
CNC(CC(C)C)C(=O)NC1C(=O)NC(CC(N)=O)C(=O)NC2C(=O)NC3C(=O)NC(C(=O)NC(C(=O)O)c4cc(O)cc(O)c4-c4cc3ccc4O)C(OC3CC(C)(N)C(O)C(C)O3)c3ccc(c(Cl)c3)Oc3cc2cc(c3OC2OC(CO)C(O)C(O)C2OC2CC(C)(NCc3ccc(OCCCc4ccccc4)cc3)C(O)C(C)O2)Oc2ccc(cc2Cl)C1O (stereo not drawn) | vancomycin-susceptible enterococci | µg/mL | 0.055
CNC(CC(C)C)C(=O)NC1C(=O)NC(CC(N)=O)C(=O)NC2C(=O)NC3C(=O)NC(C(=O)NC(C(=O)O)c4cc(O)cc(O)c4-c4cc3ccc4O)C(OC3CC(C)(N)C(O)C(C)O3)c3ccc(c(Cl)c3)Oc3cc2cc(c3OC2OC(CO)C(O)C(O)C2OC2CC(C)(NCc3ccc(NC(=O)c4cccc(F)c4)cc3)C(O)C(C)O2)Oc2ccc(cc2Cl)C1O (stereo not drawn) | vancomycin-susceptible enterococci | µg/mL | 0.083

---

Recorded measurements of MIC, one per entry
Test system: Staphylococcus aureus SA1199B
Assay type: cell-based

molecule | MIC
CNC(CC(C)C)C(=O)NC1C(=O)NC(CC(N)=O)C(=O)NC2C(=O)NC3C(=O)NC(C(=O)NC(C(=O)O)c4cc(O)cc(O)c4-c4cc3ccc4O)C(OC3CC(C)(N)C(O)C(C)O3)c3ccc(c(Cl)c3)Oc3cc2cc(c3OC2OC(CO)C(O)C(O)C2OC2CC(C)(NCc3ccc4ccc5cccc6ccc3c4c56)C(O)C(C)O2)Oc2ccc(cc2Cl)C1O (centres unmarked) | 1 µg/mL
CNC(CC(C)C)C(=O)NC1C(=O)NC(CC(N)=O)C(=O)NC2C(=O)NC3C(=O)NC(C(=O)NC(C(=O)O)c4cc(O)cc(O)c4-c4cc3ccc4O)C(OC3CC(C)(N)C(O)C(C)O3)c3ccc(c(Cl)c3)Oc3cc2cc(c3OC2OC(CO)C(O)C(O)C2OC2CC(C)(NCc3cccc(OC(=O)c4ccccc4)c3)C(O)C(C)O2)Oc2ccc(cc2Cl)C1O (centres unmarked) | ≤ 0.06 µg/mL
CNC(CC(C)C)C(=O)NC1C(=O)NC(CC(N)=O)C(=O)NC2C(=O)NC3C(=O)NC(C(=O)NC(C(=O)O)c4cc(O)cc(O)c4-c4cc3ccc4O)C(OC3CC(C)(N)C(O)C(C)O3)c3ccc(c(Cl)c3)Oc3cc2cc(c3OC2OC(CO)C(O)C(O)C2OC2CC(C)(NCc3ccc(OCc4ccccc4)cc3)C(O)C(C)O2)Oc2ccc(cc2Cl)C1O (centres unmarked) | ≤ 0.06 µg/mL
CNC(CC(C)C)C(=O)NC1C(=O)NC(CC(N)=O)C(=O)NC2C(=O)NC3C(=O)NC(C(=O)NC(C(=O)O)c4cc(O)cc(O)c4-c4cc3ccc4O)C(OC3CC(C)(N)C(O)C(C)O3)c3ccc(c(Cl)c3)Oc3cc2cc(c3OC2OC(CO)C(O)C(O)C2OC2CC(C)(NCc3ccccc3O)C(O)C(C)O2)Oc2ccc(cc2Cl)C1O (centres unmarked) | 0.125 µg/mL
CNC(CC(C)C)C(=O)NC1C(=O)NC(CC(N)=O)C(=O)NC2C(=O)NC3C(=O)NC(C(=O)NC(C(=O)O)c4cc(O)cc(O)c4-c4cc3ccc4O)C(OC3CC(C)(N)C(O)C(C)O3)c3ccc(c(Cl)c3)Oc3cc2cc(c3OC2OC(CO)C(O)C(O)C2OC2CC(C)(NCc3ccc(-c4ccc(C)cc4)c(C)c3)C(O)C(C)O2)Oc2ccc(cc2Cl)C1O (centres unmarked) | 2 µg/mL
CNC(CC(C)C)C(=O)NC1C(=O)NC(CC(N)=O)C(=O)NC2C(=O)NC3C(=O)NC(C(=O)NC(C(=O)O)c4cc(O)cc(O)c4-c4cc3ccc4O)C(OC3CC(C)(N)C(O)C(C)O3)c3ccc(c(Cl)c3)Oc3cc2cc(c3OC2OC(CO)C(O)C(O)C2OC2CC(C)(NCc3ccc(-c4ccc(F)cc4)cc3)C(O)C(C)O2)Oc2ccc(cc2Cl)C1O (centres unmarked) | 1 µg/mL
CNC(CC(C)C)C(=O)NC1C(=O)NC(CC(N)=O)C(=O)NC2C(=O)NC3C(=O)NC(C(=O)NC(C(=O)O)c4cc(O)cc(O)c4-c4cc3ccc4O)C(OC3CC(C)(N)C(O)C(C)O3)c3ccc(c(Cl)c3)Oc3cc2cc(c3OC2OC(CO)C(O)C(O)C2OC2CC(C)(NCc3ccc(Oc4ccccc4[N+](=O)[O-])cc3)C(O)C(C)O2)Oc2ccc(cc2Cl)C1O (centres unmarked) | ≤ 0.06 µg/mL
CNC(CC(C)C)C(=O)NC1C(=O)NC(CC(N)=O)C(=O)NC2C(=O)NC3C(=O)NC(C(=O)NC(C(=O)O)c4cc(O)cc(O)c4-c4cc3ccc4O)C(OC3CC(C)(N)C(O)C(C)O3)c3ccc(c(Cl)c3)Oc3cc2cc(c3OC2OC(CO)C(O)C(O)C2OC2CC(C)(NCc3cc(C)cc(C)c3)C(O)C(C)O2)Oc2ccc(cc2Cl)C1O (centres unmarked) | 1 µg/mL
CC(C)CC(C(=O)NC1C(=O)NC(CC(N)=O)C(=O)NC2C(=O)NC3C(=O)NC(C(=O)NC(C(=O)O)c4cc(O)cc(O)c4-c4cc3ccc4O)C(OC3CC(C)(N)C(O)C(C)O3)c3ccc(c(Cl)c3)Oc3cc2cc(c3OC2OC(CO)C(O)C(O)C2OC2CC(C)(NCc3cc4ccccc4s3)C(O)C(C)O2)Oc2ccc(cc2Cl)C1O)N(C)Cc1cc2ccccc2s1 (centres unmarked) | 1 µg/mL
CN[C@H](CC(C)C)C(=O)N[C@H]1C(=O)N[C@@H](CC(N)=O)C(=O)N[C@H]2C(=O)N[C@H]3C(=O)N[C@H](C(=O)N[C@H](C(=O)O)c4cc(O)cc(O)c4-c4cc3ccc4O)[C@H](O[C@H]3C[C@](C)(N)[C@@H](O)[C@H](C)O3)c3ccc(c(Cl)c3)Oc3cc2cc(c3O[C@@H]2O[C@H](CO)[C@@H](O)[C@H](O)[C@H]2O[C@H]2C[C@](C)(NCc3ccc(OCc4ccc(Cl)cc4)cc3)[C@@H](O)[C@H](C)O2)Oc2ccc(cc2Cl)[C@H]1O | 1 µg/mL
CC(C)CC(C(=O)NC1C(=O)NC(CC(N)=O)C(=O)NC2C(=O)NC3C(=O)NC(C(=O)NC(C(=O)O)c4cc(O)cc(O)c4-c4cc3ccc4O)C(OC3CC(C)(N)C(O)C(C)O3)c3ccc(c(Cl)c3)Oc3cc2cc(c3OC2OC(CO)C(O)C(O)C2OC2CC(C)(NCc3cccc4c3OCO4)C(O)C(C)O2)Oc2ccc(cc2Cl)C1O)N(C)Cc1cccc2c1OCO2 (centres unmarked) | 0.5 µg/mL

Data credit: patent US5840684A
